# assayed system: human GPR72 (Homo sapiens, UniProt Q9NYM4)
# Sequence (Q9NYM4 17-423): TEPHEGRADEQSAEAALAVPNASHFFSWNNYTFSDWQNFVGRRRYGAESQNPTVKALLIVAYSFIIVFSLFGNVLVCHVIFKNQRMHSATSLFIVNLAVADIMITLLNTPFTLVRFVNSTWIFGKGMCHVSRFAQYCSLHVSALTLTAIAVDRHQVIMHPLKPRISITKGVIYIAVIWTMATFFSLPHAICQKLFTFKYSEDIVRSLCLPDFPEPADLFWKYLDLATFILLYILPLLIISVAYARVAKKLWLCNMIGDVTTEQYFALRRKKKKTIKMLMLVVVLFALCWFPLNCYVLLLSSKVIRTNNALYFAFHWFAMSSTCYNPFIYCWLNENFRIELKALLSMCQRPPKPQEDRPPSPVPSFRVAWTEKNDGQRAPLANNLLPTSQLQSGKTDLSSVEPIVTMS
# test protocol: Aequorin-based functional assay: intracellular calcium release (luminescence) in CHO-K1 cells stably expressing human GPR72, mitochondrial apoaequorin and Galpha16
# Assay type: cell-based
# Design: expressed in transfected cells
# cond: Figure 9, additional PUFAs; CHO-K1 cells stably expressing human GPR72, aequorin; read-out: human GPR72 receptor EC50
# EC50 annotations

>  <molecule>
CCCCCC#CCC#CCC#CCC#CCCCC(=O)O

>  <EC50 [µM]>
27

$$$$
>  <molecule>
CCCCCCCCC#CCC#CCC#CCCCC(=O)O

>  <EC50 [µM]>
12

$$$$
>  <molecule>
CCCCC/C=C\C/C=C\C/C=C\C/C=C\CCCCCC(=O)O [Docosa-7Z,10Z,13Z,16Z-tetraenoic acid]

>  <EC50 [µM]>
10

$$$$
>  <molecule>
CC1=C(/C=C/C(C)=C/C=C/C(C)=C\C(=O)O)C(C)(C)CCC1 [13-cis-Retinoic acid]

>  <EC50 [µM]>
16

$$$$
>  <molecule>
CC/C=C\C/C=C\C/C=C\CCCCCCCCCC(=O)O [Eicosa-11Z,14Z,17Z-trienoic acid]

>  <EC50 [µM]>
25

$$$$
>  <molecule>
CC/C=C\C/C=C\C/C=C\C/C=C\CCCCC(=O)O [Octadeca-6Z,9Z,12Z,15Z-tetraenoic acid]

>  <EC50 [µM]>
74

$$$$
